Recorded values, source paper PMC467104.

SYSTEM_TESTED: VEGFR-2 (Homo sapiens, UniProt P35968)
Construct: gene KDR
Sequence (P35968 20-1356): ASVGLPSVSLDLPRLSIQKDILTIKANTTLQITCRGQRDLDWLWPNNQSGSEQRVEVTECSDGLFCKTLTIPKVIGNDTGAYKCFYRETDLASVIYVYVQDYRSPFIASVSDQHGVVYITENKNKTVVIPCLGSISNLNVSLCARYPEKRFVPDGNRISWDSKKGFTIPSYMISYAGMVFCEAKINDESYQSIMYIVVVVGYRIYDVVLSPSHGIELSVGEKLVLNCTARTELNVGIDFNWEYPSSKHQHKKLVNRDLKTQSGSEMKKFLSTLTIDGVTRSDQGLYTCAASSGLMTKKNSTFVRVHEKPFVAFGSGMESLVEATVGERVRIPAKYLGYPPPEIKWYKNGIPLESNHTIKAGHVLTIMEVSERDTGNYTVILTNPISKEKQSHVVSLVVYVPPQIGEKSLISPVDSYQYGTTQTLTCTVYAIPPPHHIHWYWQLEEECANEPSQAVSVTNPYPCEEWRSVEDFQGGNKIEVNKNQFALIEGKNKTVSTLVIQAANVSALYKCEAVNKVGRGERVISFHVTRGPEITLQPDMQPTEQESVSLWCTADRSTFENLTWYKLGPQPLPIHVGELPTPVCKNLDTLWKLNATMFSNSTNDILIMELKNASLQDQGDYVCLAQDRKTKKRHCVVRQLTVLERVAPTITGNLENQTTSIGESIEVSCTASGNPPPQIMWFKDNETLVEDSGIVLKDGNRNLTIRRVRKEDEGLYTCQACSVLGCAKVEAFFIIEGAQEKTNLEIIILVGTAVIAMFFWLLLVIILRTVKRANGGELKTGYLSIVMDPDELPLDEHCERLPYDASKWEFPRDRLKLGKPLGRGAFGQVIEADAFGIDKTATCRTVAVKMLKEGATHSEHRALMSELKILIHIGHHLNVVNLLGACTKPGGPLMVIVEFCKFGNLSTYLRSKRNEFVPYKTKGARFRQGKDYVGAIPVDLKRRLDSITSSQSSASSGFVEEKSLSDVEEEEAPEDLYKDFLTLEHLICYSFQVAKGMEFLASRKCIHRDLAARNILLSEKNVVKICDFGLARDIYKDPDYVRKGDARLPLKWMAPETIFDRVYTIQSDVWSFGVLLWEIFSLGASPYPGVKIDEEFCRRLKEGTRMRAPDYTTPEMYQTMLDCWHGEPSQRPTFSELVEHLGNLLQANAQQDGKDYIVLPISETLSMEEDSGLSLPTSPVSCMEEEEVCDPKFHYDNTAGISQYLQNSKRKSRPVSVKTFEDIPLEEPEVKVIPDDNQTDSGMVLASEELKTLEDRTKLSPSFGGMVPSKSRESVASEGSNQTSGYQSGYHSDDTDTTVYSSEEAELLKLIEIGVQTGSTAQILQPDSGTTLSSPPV
ASSAY_EXPLANATION: BPS Bioscience KDR kinase assay (Kinase-Glo Max/ADP-Glo luminescence)
Assay type: biochemical

| COMPOUND | IC50 [nM] |
| --- | --- |
| CCOC(=O)C1=C(C)NC(SCC(=O)Nc2ccc(C(=O)/C=C/c3cc(OC)c(OC)c(OC)c3)cc2)=N[C@@H]1c1ccc(O)c(OC)c1 [CDHPM-10e] | 112 |
